- tgt: T1, TNFR1 (Homo sapiens, UniProt P19438)
- T1 chain: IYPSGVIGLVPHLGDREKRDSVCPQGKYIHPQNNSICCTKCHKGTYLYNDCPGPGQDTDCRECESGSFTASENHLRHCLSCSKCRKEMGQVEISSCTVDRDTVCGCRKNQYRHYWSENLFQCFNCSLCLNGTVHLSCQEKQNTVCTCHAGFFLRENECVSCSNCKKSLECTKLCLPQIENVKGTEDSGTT
- method: yeast display SC50
readoutLabel: apparent Kd (screen) (nM)

[
  {
    "binder": "V6E (designed binder) SMEEEEEKAAKEYEKKKKEAIEKHLEKLKAKDKEAAERFLKELEEAAKEYAKDEAKTMSEEEAKRRAKKYKEKVLLSELSEEEQKEIKEAEEKLVRTILKYVEEAAK",
    "apparent Kd (screen), nM": 11.4
  },
  {
    "binder": "E49M (designed binder) SMEEEVEKAAKEYEKKKKEAIEKHLEKLKAKDKEAAERFLKELEEAAKMYAKDEAKTMSEEEAKRRAKKYKEKVLLSELSEEEQKEIKEAEEKLVRTILKYVEEAAK",
    "apparent Kd (screen), nM": 12.5
  },
  {
    "binder": "E4G (designed binder) SMEGEVEKAAKEYEKKKKEAIEKHLEKLKAKDKEAAERFLKELEEAAKEYAKDEAKTMSEEEAKRRAKKYKEKVLLSELSEEEQKEIKEAEEKLVRTILKYVEEAAK",
    "apparent Kd (screen), nM": 0.718
  },
  {
    "binder": "E34C (designed binder) SMEEEVEKAAKEYEKKKKEAIEKHLEKLKAKDKCAAERFLKELEEAAKEYAKDEAKTMSEEEAKRRAKKYKEKVLLSELSEEEQKEIKEAEEKLVRTILKYVEEAAK",
    "apparent Kd (screen), nM": 1.16
  },
  {
    "binder": "E45T (designed binder) SMEEEVEKAAKEYEKKKKEAIEKHLEKLKAKDKEAAERFLKELETAAKEYAKDEAKTMSEEEAKRRAKKYKEKVLLSELSEEEQKEIKEAEEKLVRTILKYVEEAAK",
    "apparent Kd (screen), nM": 2.73
  }
]

A. E86W (designed binder) SMEEEVEKAAKEYEKKKKEAIEKHLEKLKAKDKEAAERFLKELEEAAKEYAKDEAKTMSEEEAKRRAKKYKEKVLLSELSEEEQKWIKEAEEKLVRTILKYVEEAAK
B. I87C (designed binder) SMEEEVEKAAKEYEKKKKEAIEKHLEKLKAKDKEAAERFLKELEEAAKEYAKDEAKTMSEEEAKRRAKKYKEKVLLSELSEEEQKECKEAEEKLVRTILKYVEEAAK
C. M58R (designed binder) SMEEEVEKAAKEYEKKKKEAIEKHLEKLKAKDKEAAERFLKELEEAAKEYAKDEAKTRSEEEAKRRAKKYKEKVLLSELSEEEQKEIKEAEEKLVRTILKYVEEAAK
D. S1P (designed binder) PMEEEVEKAAKEYEKKKKEAIEKHLEKLKAKDKEAAERFLKELEEAAKEYAKDEAKTMSEEEAKRRAKKYKEKVLLSELSEEEQKEIKEAEEKLVRTILKYVEEAAK
Q) Put the binders in ascending order of apparent Kd (screen). # the answer lists labels in the order requested
A) D, A, B, C

All values here come from paper PMC12416549.
